Here the recorded protein stability index is given for each entry.
# TEST: protein stability index of a GFP-peptide fusion (yeast GPS) (PSI 1-4); higher = more stable; sorted into four equal gates, so the index is relative within each strain
# CONDITION PARAMETERS: ubr1∆
Enter the number alone.

Use the examples below as a reference point.
>  <SEQUENCE DATA>
VQRQIEQQKGQQTAQTQ [SNF5]

>  <protein stability index>
3.07

$$$$
>  <SEQUENCE DATA>
QTLGLESFTEELSNELS [MED1]

>  <protein stability index>
3

$$$$
>  <SEQUENCE DATA>
AKSTPNTNPSPLKTQTK [GAL11]

>  <protein stability index>
2.91

$$$$
>  <SEQUENCE DATA>
ERSSKRLAKKPSMKKIK [SIR3]

>  <protein stability index>
3.06

$$$$

Challenge: Give me measured protein stability index, please, for this sequence: EHIKEGSEIAISSLGYR [SWI3]
Response given: 2.95

====

Here the recorded protein stability index is given for each entry.
# TEST: protein stability index of a GFP-peptide fusion (yeast GPS) (PSI 1-4); higher = more stable; sorted into four equal gates, so the index is relative within each strain
# CONDITION PARAMETERS: ubr1∆
Enter the number alone.

>  <SEQUENCE DATA>
LLSDVNQNQRNVNETMS [SMC3]

>  <protein stability index>
3.01

$$$$
>  <SEQUENCE DATA>
PDAQNELPKFILSDSPL [DIS3]

>  <protein stability index>
2.92

$$$$
>  <SEQUENCE DATA>
KRLSAALSKFLTHPKYL [YML103C/NUP188]

>  <protein stability index>
2.91

$$$$

Challenge: Give me measured protein stability index, please, for this sequence: KFGYILCVLDYDNIDIQ [RPB7]
Response given: 2.04

====

Here the recorded protein stability index is given for each entry.
# TEST: protein stability index of a GFP-peptide fusion (yeast GPS) (PSI 1-4); higher = more stable; sorted into four equal gates, so the index is relative within each strain
# CONDITION PARAMETERS: doa10∆
Enter the number alone.

Use the examples below as a reference point.
>  <SEQUENCE DATA>
GTYIQERNPSQRPQRRY [RPS10B]

>  <protein stability index>
3.01

$$$$
>  <SEQUENCE DATA>
KACKTADKLVNVTQNEQ [SRP68]

>  <protein stability index>
3.02

$$$$
>  <SEQUENCE DATA>
DTVIIFDTDWNPHQDLQ [SNF2]

>  <protein stability index>
2.93

$$$$
>  <SEQUENCE DATA>
QQFNLHEILSEPAIEEE [MED1]

>  <protein stability index>
2.94

$$$$
>  <SEQUENCE DATA>
DLAERASELDESKDSIQ [SMC3]

>  <protein stability index>
3.06

$$$$
>  <SEQUENCE DATA>
GLELSNFKSYRGVTKVG [SMC1]

>  <protein stability index>
3.04

$$$$
>  <SEQUENCE DATA>
VLYQSNATHDEDEFIVQ [SWP82]

>  <protein stability index>
3.05

$$$$
>  <SEQUENCE DATA>
KSSNDTIEHAADITDGN [YCG1]

>  <protein stability index>
2.98

$$$$
>  <SEQUENCE DATA>
STMKENKDLSELVIRLE [YIL149C/MLP2]

>  <protein stability index>
3.08

$$$$
>  <SEQUENCE DATA>
KLEPKEIVRDILHTKES [SIR4]

>  <protein stability index>
2.92

$$$$

Challenge: Give me measured protein stability index, please, for this sequence: CTLTADGAYALSASWDK [ASC1]
Response given: 3.08

Challenge: Give me measured protein stability index, please, for this sequence: HLKHENANDETTAVEDE [RPB4]
Response given: 2.92

Values from the supplement of paper PMC9732359
